# Protocol Notes: Oxalate salt solubility by HPLC
# Type: physicochemical
# Test Parameters: fassgf or other biorelevant, thermodynamic from solid; SNF; by HPLC, mother liquors adjusted to the desired pH; read-out: Solubility (mg/ml) of free base
# Procedure: The calibration curve of the free base was prepared between 0.031-0.500 mg/ml and can be seen in FIG. 172. Oxalate Salt Solubility by HPLC Mother liquors were adjusted to the desired pH before HPLC quantification.
Where a name gives a salt, the structure may show the parent alone.
Quantity Name: solubility

*Q* Query (compound): COc1ccc2[nH]cc(CCN(C)C)c2c1 [Oxalate salt, 5-MeO-DMT oxalate] ; field requested: solubility
*A* 20.2 mg/mL

----------
# Protocol Notes: Thermo-Gravimetric Analysis (TGA), thermal stability
# Test Parameters: 10° C./min, nitrogen
Where a name gives a salt, the structure may show the parent alone.
Would you mind telling me the reported thermal stability up to (TGA) of each entry?
Numbers only, in °C.

>>> experimental_value("Br.COc1ccc2[nH]cc(CCN(C)C)c2c1 [Hydrobromide salt, 5-MeO-DMT hydrobromide]")
220
>>> experimental_value("COc1ccc2[nH]cc(CCN(C)C)c2c1 [Saccharinate salt, 5-MeO-DMT saccharinate]")
200
>>> experimental_value("COc1ccc2[nH]cc(CCN(C)C)c2c1 [free base, 5-methoxy-N,N-dimethyltryptamine]")
150

// each molecule listed below needs its thermal stability up to (TGA)
1. COc1ccc2[nH]cc(CCN(C)C)c2c1 [Fumarate salt, 5-MeO-DMT fumarate]
2. COc1ccc2[nH]cc(CCN(C)C)c2c1 [Benzenesulfonate salt, 5-MeO-DMT benzenesulfonate]

*A*
[150, 250]

----------
# Protocol Notes: Polymorphism screen of hydrochloride and benzoate salts: thermal cycling, evaporation, antisolvent addition, cooling (XRPD)
# Format: physicochemical
# Test Parameters: thermal cycle of lyophilised hydrochloride salt (~40 mg), solvent added; solvent per experiment: -01 1,4-Dioxane, -02 1-Propanol, -03 2-Butanol, -04 2-Ethoxyethanol, -05 2-Methyltetrahydrofuran, -06 2-Propanol, -07 Acetone, -08 Acetonitrile, -09 Anisole, -10 Chlorobenzene, -11 Ethanol, -12 Ethyl acetate, -13 Isopropyl acetate, -14 Methanol, -15 Propyl acetate, -16 Methylethyl ketone, -17 Formamide
Quantity Name: Initial Observations

>>> experimental_value("COc1ccc2[nH]cc(CCN(C)C)c2c1.Cl [DJP2202-007-16]")
"no change"
>>> experimental_value("COc1ccc2[nH]cc(CCN(C)C)c2c1.Cl [DJP2202-007-07]")
"no change"
>>> experimental_value("COc1ccc2[nH]cc(CCN(C)C)c2c1.Cl [DJP2202-007-09]")
"no change"
>>> experimental_value("COc1ccc2[nH]cc(CCN(C)C)c2c1.Cl [DJP2202-007-15]")
"no change"
>>> experimental_value("COc1ccc2[nH]cc(CCN(C)C)c2c1.Cl [DJP2202-007-17]")
"dissolved"
>>> experimental_value("COc1ccc2[nH]cc(CCN(C)C)c2c1.Cl [DJP2202-007-04]")
"dissolved"

Fill in Initial Observations for each of the 2 compounds listed.
1. COc1ccc2[nH]cc(CCN(C)C)c2c1.Cl [DJP2202-007-24]
2. COc1ccc2[nH]cc(CCN(C)C)c2c1.Cl [DJP2202-007-18]

*A*
dissolved
dissolved
